- assay.target: IL-13 (Homo sapiens (Human), UniProt P35225 35-146, limits assumed)
- Sequence (P35225 35-146 limits assumed): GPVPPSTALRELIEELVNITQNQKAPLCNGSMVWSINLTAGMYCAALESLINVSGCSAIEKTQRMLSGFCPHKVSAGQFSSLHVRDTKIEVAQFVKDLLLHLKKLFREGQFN
- test.name: Biacore
Reported Kd values for a set of binders
Just the number in nM, nothing appended.

Give its Kd value. Item: M1295 (antibody, V domains shown) VH: QVTLKESGPVLVKPTETLTLTCTVSGFSLSTYGVGVGWIRQPPGKALEWLAHIWWDDVKRYNPALKSRLTISKDTSKSQVVLTMTNMDPVDTATYYCARLGSDYDVWFDYWGQGTLVTVSS VL: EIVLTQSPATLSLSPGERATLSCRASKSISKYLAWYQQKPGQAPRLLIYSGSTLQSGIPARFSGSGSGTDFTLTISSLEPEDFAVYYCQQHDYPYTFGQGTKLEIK
0.015

Follow-up entry: M459 (antibody, V domains shown, anti-IL-13, human IgG1) VH: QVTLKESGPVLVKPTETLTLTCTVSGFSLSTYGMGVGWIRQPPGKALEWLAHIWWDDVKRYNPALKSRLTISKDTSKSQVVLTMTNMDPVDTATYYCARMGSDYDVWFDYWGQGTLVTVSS VL: EIVLTQSPATLSLSPGERATLSCRASKSISKYLAWYQQKPGQAPRLLIYSGSTLQSGIPARFSGSGSGTDFTLTISSLEPEDFAVYYCQQPLEAPYTFGQGTKLEIK
0.356

Follow-up entry: M445 (antibody, V domains shown, anti-IL-13, human IgG1) VH: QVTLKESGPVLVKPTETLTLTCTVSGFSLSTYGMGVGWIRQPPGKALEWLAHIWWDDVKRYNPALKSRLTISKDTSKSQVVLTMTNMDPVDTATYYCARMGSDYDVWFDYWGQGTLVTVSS VL: EIVLTQSPATLSLSPGERATLSCRASKSISKYLAWYQQKPGQAPRLLIYSGSTLQSGIPARFSGSGSGTDFTLTISSLEPEDFAVYYCQQHLLGPYTFGQGTKLEIK
0.262

Follow-up entry: M472 (antibody, V domains shown, anti-IL-13, human IgG1) VH: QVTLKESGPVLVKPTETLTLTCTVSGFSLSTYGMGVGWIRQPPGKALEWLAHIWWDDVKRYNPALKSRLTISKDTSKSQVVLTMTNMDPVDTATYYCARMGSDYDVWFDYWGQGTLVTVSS VL: EIVLTQSPATLSLSPGERATLSCRASKSISKYLAWYQQKPGQAPRLLIYSGSTLQSGIPARFSGSGSGTDFTLTISSLEPEDFAVYYCQQPLDSPYTFGQGTKLEIK
0.259

Follow-up entry: M465 (antibody, V domains shown, anti-IL-13, human IgG1) VH: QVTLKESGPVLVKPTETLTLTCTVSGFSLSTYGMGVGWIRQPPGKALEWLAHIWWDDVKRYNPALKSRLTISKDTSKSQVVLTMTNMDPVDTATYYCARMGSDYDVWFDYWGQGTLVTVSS VL: EIVLTQSPATLSLSPGERATLSCRASKSISKYLAWYQQKPGQAPRLLIYSGSTLQSGIPARFSGSGSGTDFTLTISSLEPEDFAVYYCQQHDNSPYTFGQGTKLEIK
0.306
